Would you kindly list Pigweed plant response rating for each of these molecules?
System: pigweed (Amaranthus retroflexus)
assay.procedure: Test A postemergence
Type: in vivo
settings: 125 g ai/ha, postemergence; visual injury rating on 0 to 100 scale (0 no effect, 100 complete control), approx. 10 d
Excerpt: […]

Reference set, count: 4
molecule: COc1ccc(N2CC(c3cccc(C(F)(F)F)c3)C(C(=O)Nc3ccccc3F)C2=O)cc1 (centres unmarked) [Compound 505]
observed.measurement: 0

molecule: CCc1ccc(C2CNC(=O)C2C(=O)Nc2cccc(F)c2F)cc1 (centres unmarked) [Compound 467]
observed.measurement: 0

molecule: COCc1cccc(C2CNC(=O)C2C(=O)Nc2ccccc2F)c1 (centres unmarked) [Compound 496]
observed.measurement: 0

molecule: COCc1cccc(C2CNC(=O)C2C(=O)Nc2cccc(F)c2F)c1 (centres unmarked) [Compound 497]
observed.measurement: 0

stdin: Tell me Pigweed plant response rating reported for CN1CC(c2cccc(OC(F)(F)C(F)F)c2)C(C(=O)Nc2cccc(F)c2F)C1=O (centres unmarked) [Compound 392]
stdout: 60
